Hey, just so you know, these numbers are from patent US20150284477.

- target: T1, GGG-COOH
- T1 chain: GGG
Record form. Attribute: Km GGG-COOH. Fill in for each entry.
Answers are plain numbers, in µM.

Below: 3 proteins and their reported Km GGG-COOH.
INSERT INTO results (protein, recorded_measurement) VALUES
  ('P94S/D160N/K196T (protein) MQAKPQIPKDKSKVAGYIEIPDADIKEPVYPGPATSEQLNRGVSFAEENESLDDQNISIAGHTFIDRPNYQFTNLKAAKKGSMVYFKVGNETRKYKMTSIRNVKPTDVEVLDEQKGKDKQLTLITCDDYNEKTGVWETRKIFVATEVKLEHHHHHH', 1830),
  ('srtA K196T (protein) MQAKPQIPKDKSKVAGYIEIPDADIKEPVYPGPATPEQLNRGVSFAEENESLDDQNISIAGHTFIDRPNYQFTNLKAAKKGSMVYFKVGNETRKYKMTSIRDVKPTDVEVLDEQKGKDKQLTLITCDDYNEKTGVWETRKIFVATEVKLEHHHHHH', 200),
  ('P94R/D160N/D165A/K190E/K196T pentamutant sortase A (protein) MQAKPQIPKDKSKVAGYIEIPDADIKEPVYPGPATREQLNRGVSFAEENESLDDQNISIAGHTFIDRPNYQFTNLKAAKKGSMVYFKVGNETRKYKMTSIRNVKPTAVEVLDEQKGKDKQLTLITCDDYNEETGVWETRKIFVATEVKLEHHHHHH', 2900);

Next up:
Return reported Km GGG-COOH; argument: wild type S. aureus sortase A (truncated, His tagged) (protein) MQAKPQIPKDKSKVAGYIEIPDADIKEPVYPGPATPEQLNRGVSFAEENESLDDQNISIAGHTFIDRPNYQFTNLKAAKKGSMVYFKVGNETRKYKMTSIRDVKPTDVEVLDEQKGKDKQLTLITCDDYNEKTGVWEKRKIFVATEVKLEHHHHHH 140
